Measured values drawn from patent US7291611B2 for this set.

- test_target: M4 muscarinic receptor (Homo sapiens, UniProt P08173)
- Construct: expressed in transfected cells; host or cells: NIH-3T3 cells (ATCC CRL 1658)
- Sequence (P08173 whole entry): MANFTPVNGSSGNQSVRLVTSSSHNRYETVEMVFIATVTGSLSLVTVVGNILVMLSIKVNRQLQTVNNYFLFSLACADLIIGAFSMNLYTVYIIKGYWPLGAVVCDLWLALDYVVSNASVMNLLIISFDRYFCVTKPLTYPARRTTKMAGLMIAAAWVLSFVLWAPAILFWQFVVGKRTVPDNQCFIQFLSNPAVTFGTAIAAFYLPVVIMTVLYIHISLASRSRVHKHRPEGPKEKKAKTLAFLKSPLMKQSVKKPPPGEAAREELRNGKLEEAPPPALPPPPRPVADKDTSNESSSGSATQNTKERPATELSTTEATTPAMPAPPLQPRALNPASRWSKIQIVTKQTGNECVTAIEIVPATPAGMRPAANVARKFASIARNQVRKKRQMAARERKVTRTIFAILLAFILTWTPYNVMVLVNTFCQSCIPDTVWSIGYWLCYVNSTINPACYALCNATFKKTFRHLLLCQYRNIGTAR
- assay_procedure: R-SAT functional assay, muscarinic M4 receptor
- Type: cell-based
- settings: NIH3T3; R-SAT, transfected NIH-3T3 cells, relative to maximum response to carbachol; read-out: M4 % Efficacy
outcome_measure: Emax (%)

Examples from the recorded data:
# molecule, meas_value
records = [
    ("CCCCC=C1CCN(CCCn2c(=O)[nH]c3ccccc32)CC1 [Compound 61KS-13]", 100),
    ("CCCCC1CCN(CCCn2c(=O)sc3ccccc32)CC1 [Compound 62KK040d]", 93),
]

[a] CCCCC1CCN(CC(C)Cn2c(=O)sc3ccccc32)CC1 (stereo not shown)
[b] CCCCC1CCN(CCCn2c(=O)oc3cccc(C)c32)CC1
Exercise: In terms of reported Emax, does a or b have the smaller number? Refer to your chosen entry by its label in the reply.
Solution: b

====

- test_target: M1 muscarinic receptor (Homo sapiens)
- Construct: expressed in transfected cells; host or cells: NIH-3T3 cells (ATCC CRL 1658)
- Sequence (P11229 whole entry): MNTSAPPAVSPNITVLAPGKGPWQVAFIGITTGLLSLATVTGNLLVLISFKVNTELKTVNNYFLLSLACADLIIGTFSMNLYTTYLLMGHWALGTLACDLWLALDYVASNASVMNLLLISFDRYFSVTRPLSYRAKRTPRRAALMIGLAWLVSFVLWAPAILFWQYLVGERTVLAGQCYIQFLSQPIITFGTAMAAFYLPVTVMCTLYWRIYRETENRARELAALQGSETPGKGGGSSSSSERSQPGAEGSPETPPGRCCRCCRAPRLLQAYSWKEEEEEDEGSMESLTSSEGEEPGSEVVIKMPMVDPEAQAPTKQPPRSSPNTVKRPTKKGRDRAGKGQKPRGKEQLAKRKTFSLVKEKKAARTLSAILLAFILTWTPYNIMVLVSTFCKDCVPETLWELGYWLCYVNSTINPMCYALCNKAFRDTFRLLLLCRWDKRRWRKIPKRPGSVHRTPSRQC
- assay_procedure: R-SAT functional assay, muscarinic M1 receptor
- Format: cell-based
- settings: R-SAT, transfected NIH-3T3 cells; read-out: M1 pEC50 (converted)
outcome_measure: EC50 (nM)

Consider the reported EC50 for these compounds:
# compound, measurement_units, EC50
data = [
    ("CCCCC1CCN(CCCn2c(=O)oc3cc(F)ccc32)CC1 [Compound 97KK28]", "nM", 200),
    ("CCCCC1CCN(CCCn2c(=O)n(C)c3ccccc32)CC1 [Compound 45NK-110]", "nM", 100),
    ("CCCCC1CC2CCC(C1)N2CCCn1c(=O)sc2ccccc21 (stereo not drawn) [Compound 97KS96-2]", "nM", 50.1),
]

[a] CCCCC1CCN(CC(C)Cn2c(=O)sc3ccccc32)CC1 (stereo not drawn) [Compound 85LM14]
[b] CCCCC1CCN(CCCn2c(=O)oc3ccc(C)cc32)CC1 [Compound 86KKM25-d]
[c] CCCCC1CCN(CCCn2c(=O)oc3ccc(F)cc32)CC1 [Compound 86KK22-K]
Exercise: hey, can you rank those compounds up there by EC50? biggest number first please Write the labels out in the order the request specifies.
Solution: c, b, a
(c: 200 nM, b: 100 nM, a: 31.6 nM)
